PARAMETER: pIC50
// scale note: pIC50 = -log10(conc_M); give the bare number

Log: sigma-1 (Homo sapiens), molecule CNCC1CCOC1(c1ccccc1)c1ccccc1 (stereo not shown) [AE37Met] , pIC50 = 6.17
